Where do the numbers come from? From patent US7589219B2.

Target: BuChE (from human serum, EC 3.1.1.8) (Homo sapiens, UniProt P06276)
Sequence (P06276 29-602): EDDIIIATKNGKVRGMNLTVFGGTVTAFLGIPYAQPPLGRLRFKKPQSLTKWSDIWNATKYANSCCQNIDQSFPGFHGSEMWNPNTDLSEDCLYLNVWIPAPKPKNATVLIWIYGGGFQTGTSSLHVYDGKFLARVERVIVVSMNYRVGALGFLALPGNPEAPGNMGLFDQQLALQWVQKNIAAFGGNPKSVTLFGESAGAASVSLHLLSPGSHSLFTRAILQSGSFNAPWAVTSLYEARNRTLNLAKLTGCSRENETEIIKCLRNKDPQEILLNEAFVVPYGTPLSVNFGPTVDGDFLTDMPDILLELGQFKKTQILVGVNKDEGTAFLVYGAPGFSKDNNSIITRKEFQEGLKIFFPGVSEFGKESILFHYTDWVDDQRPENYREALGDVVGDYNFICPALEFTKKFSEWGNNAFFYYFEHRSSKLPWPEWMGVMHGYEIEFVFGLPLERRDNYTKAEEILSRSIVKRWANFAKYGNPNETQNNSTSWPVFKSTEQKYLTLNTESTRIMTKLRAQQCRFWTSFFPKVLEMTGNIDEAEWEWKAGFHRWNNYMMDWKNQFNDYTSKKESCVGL
Assay: biochemical
READOUT_TYPE: pIC50
# pIC50 = -log10(concentration in molar units)

Inquiry: Which pIC50 value belongs to CCN(CCCCCCNC1=CC(=O)C(NCCCCCCN(CC)Cc2ccccc2[N+](=O)[O-])=CC1=O)Cc1ccccc1[N+](=O)[O-] [XXIX] ?
Reply text: 4.44

###

Molecular target: BuChE (from human serum, EC 3.1.1.8) (Homo sapiens)
Experiment: biochemical
Details: BuChE from human serum; Ellman's method; Table I; read-out: IC50 (BuChE)
READOUT_TYPE: pIC50
# pIC50 = -log10(concentration in molar units)

Inquiry: Request: pIC50, test system BuChE (from human serum, EC 3.1.1.8) (Homo sapiens), entry `CCN(CCCCCCNC1=CC(=O)C(NCCCCCCN(CC)Cc2ccccc2OC)=CC1=O)Cc1ccccc1OC`
Reply text: 5.84

Inquiry: Request: pIC50, test system BuChE (from human serum, EC 3.1.1.8) (Homo sapiens), entry `CCN(CCCNC1=CC(=O)C(NCCCN(CC)Cc2ccccc2OC)=CC1=O)Cc1ccccc1OC`
Reply text: 5.35
